target: SARS-CoV-2 spike receptor-binding domain (RBD), monomeric (SARS-CoV-2, UniProt P0DTC2); test: BLI
recorded metric: koff

>>> observed_value("MD17 (antibody, V domains shown, biotinylated when immobilised on the BLI sensor) VH: EVQLLESGGGLVQPGGSLRLSCSASGFTFSTYVMNWVRQAPGKGLEHVSGISSDGGITYYADSVKGRFTISRDNSKNTLYLQMSSLRVEDTAVYYCVKDQDSSSWYDAFDIWGQGTMVTVSS VL: DIVMTQSPSSLSASVGDRVTITCRASQSISNYLNWYQQKLGKAPKLLTYAASRLQSGVPSRFSASGSGTEFTLTISSLQPEDFATYYCQQSYTTPLTFGGGTKLEIK")
"0.00026 s⁻¹"
>>> observed_value("MD62 (antibody, V domains shown, biotinylated when immobilised on the BLI sensor) VH: EVQLVQSGGGLIQPGGSLRLSCAASGVTVSSNYMTWVRQAPGKGLEWVSLIYSGGSTYYADSVKGRFTISRDNSKNTLYLQMNSLRAEDTAVYYCARDLQYYGMDVWGQGTMVTVSS VL: AIRMTQSPSSVSASVGDRVTITCRASQDIGSWLGWYQQKPGKAPKLLIYAASSLAGGVPSRFSGSGSGTDFTLTISSLQPEDFATYYCQQANSFPLTFGGGTKLEIK")
"0.00063 s⁻¹"
>>> observed_value("MD29 (antibody, V domains shown, biotinylated when immobilised on the BLI sensor) VH: QMQLVQSGGGLVQPGGSLRLSCSASGFTFSTYVMNWVRQAPGKGPEHVSGISSDGGITYYADSVKGRFTISRDNSKNTLYLQMSSLRVEDTAVYYCVKDQDSSSWYDAFDIWGQGTMVTVSS VL: NIRLTQSPSSLSASVGDRVTITCRATQSISSYLNWYQQKPGKAPNLLIYAASSLQSGVPSRFSGSGSGTDFTLTISSLQPEDFATYYCHQTYTSPYTFGQGTKLEIK")
"0.00014 s⁻¹"
>>> observed_value("MD45 (antibody, V domains shown, biotinylated when immobilised on the BLI sensor) VH: EVQLVQSGGGLVQPGGSLRLSCAASGFTVSSNYMTWVRQAPGKGLEWVSVIYSGGSTFYADSVKGRFTISRHNSKNTLYLQMNSLRAEDTAVYYCARDLSVRGGMDVWGQGTMVTVSS VL: EIVLTQSPGTLSLSPGERATLSCRASQSVNSSYLAWYQQKPGQAPRLLIYGASNRATGIPDRFSGSGSGTDFTLTISRLEPEDFAVYYCQQYGVSPEIIFGQGTRLEIK")
"0.00055 s⁻¹"

// switching to the query binder
### Prompt Report koff for MD47 (antibody, V domains shown, biotinylated when immobilised on the BLI sensor) V domain 1: QMQLVQSGGGLVQPGGSLRLSCAASGFTFSSYAMSWVRQAPGKGLEWVSAISSGGSTYYADSVKGRFTISRDNSKNTLYLQMNSLRAEDTAVYYCAKDLVTAPSYEAFDIWGQGTMITVSS V domain 2: NFMLTQPPSVSVAPGKTARITCGGNNIGSKSVHWYQQKPGQAPVLVIYYDSDRPSGIPERFSGSNSGNTATLTISRVEAGDEADYYCQVWDSSSHHHVVFGGGTKGTVL please.
### Response 9e-05 s⁻¹
